system: ULK2; details: concentration: 1 μM, replicates: in singlicate; n = 1;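 further: KINOMEscan kinase panel screen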
I'd appreciate it if you could supply %Inh values for the items below.
Write down the numeric answer in % and omit the unit.

State its %Inh: O=C(NCCCN1CCOCC1)c1cccc(Nc2nccc(Nc3ccc(Oc4ccccc4)cc3)n2)c1 [GW663929]
2

For the compound [2H]C([2H])(c1cccc(C(F)(F)F)c1C)n1ccn2c(=O)nc(N3CCOCC3)cc12 [GSK2336394] , report %Inh.
0

Please give measured %Inh of the following entry: O=c1cc(N2CCOCC2)nc2n(Cc3cccc(C(F)(F)F)c3)ccn12 [GSK2297543]
0

Provide measured %Inh value, entry: Cc1ccc(C(=O)NCC(N)=O)cc1-n1c(C)cc(OCc2ccc(F)cc2F)c(Br)c1=O
0

Provide measured %Inh value, entry: O=C(Nc1n[nH]c2cc(-c3cccc(F)c3)ccc12)C1CC1 [SB-735464]
12

Give %Inh for Cc1cccc(-c2nc(Nc3ccc4ncsc4c3)c3ccccc3n2)n1 [GW867588]
0

Check the records and state %Inh for COc1cc2c(cc1OCCN1CCN(C)CC1)ncc1c3ccc(C#N)cc3[nH]c21
99.9

Give recorded %Inh. Cl.Nc1ncnc2occ(-c3ccc(NC(=O)Nc4cc(C(F)(F)F)ccc4F)cc3)c12 [SB-707548]
0

Item Cc1nnc(-c2ccc3occ(-c4ccc(C(C)O)cc4)c3c2)o1 (centres unmarked) : provide %Inh
2

Give a short answer stating reported %Inh for COCCNC(=O)c1ccc(-c2cc(C(=O)NC3CC3)cc(F)c2C)cc1 [GW868318] .
37

For the compound Fc1ccc(-c2nn3c(OCC(F)(F)F)cccc3c2-c2ccncc2)cc1 [GW514784] , give its reported %Inh.
0
